Tested on: SNB-75
Experiment: NCI tumour cell line growth inhibition, 48 h
Activity calls are given as the source filed them. Cut-off read from the data, not from the text of the source: active = GI50 up to about 1.1 µM and inactive = higher.
// one of active, inactive, no free text

Please review the following examples before continuing.
Compound	Category
C=CCOCC1C2CCC3(OCCO3)C21 (centres undefined)	inactive
O=C(/C=C/c1ccccc1)c1ccc(Cl)cc1Cl	inactive
COc1cc(C2c3cc4c(cc3OC(NCCc3ccccc3)C2C)OCO4)cc(OC)c1OC (centres undefined)	active
O=c1cc(N2CCOCC2)n2c(ccc3ccccc32)n1	inactive
N#Cc1ccnc(C(=O)N2CCCC2C(=O)O)c1 (centres undefined)	inactive

Could you now look at the following compound, please?
### Prompt Call for entry COc1cc2nc(-c3c(F)cccc3F)n(Cc3c(F)cccc3F)c2cc1Cc1c(F)cccc1F :
### Response inactive

Attribution: ChEMBL document CHEMBL1201862
